Values from the supplement of paper PMC9170038

System: K4 kissing-loop RNA reporter;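 also: bound reporter read as fluorescence of individual clusters on recovered sequencing chips by microscopy, with normalized cluster intensities fitted with a binding model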
METHOD DESCRIPTION: apparent KD of K4 kissing-loop reporter; higher = weaker reporter binding
TEST PARAMETERS: Eterna round: R107; input ligand: theophylline 20 uM
Class membership depends on apparent KD of K4 kissing-loop reporter alone; the intervals are low range: < 0.3 µM; mid range: ≥ 0.3 µM and < 0.6 µM; high range: ≥ 0.6 µM

Input: GET /class?item= UGUCAUUGGUCGGCCGCCACUUCAUAGAGAGUGAUGUUCUUAAAGACGGAUCGAAAGAUCUGUCGAAGGACCGGGACCGAUGACU [FiskerMod 9 - Jieux - Same State - Tryptophan B]
Output: high range

Input: // bin(item) where item = AGACUACCACACUGUCAAUAGACAGUGUACUAGGAUAUGCUGAUAAGCAGAAGGAGUGAUGUUCCUGGGUAGUCAAUAAAAUAAU [FmnAX 13 U28+G67]
Output: mid range

Input: Category of UAUACGCUAGUGAUGUUGGCGAAGACUGAAGGAGCGUGCGAGAGUACAGGUAGGUCGCAGUCAGACAGAUUGUACCUGUCUUAUG [Arg A SS t10] , please.
Output: mid range

Input: Please indicate the class for ACCUAGUACGUAGGAUAUCGAACAUCAUUUAGUGAGAUCGAGUGAUGUUCGAUCACGUCUUCAGUUCGAGAAGGACGUACUAGGA [FMN B SS t4] based on its apparent KD of K4 kissing-loop reporter.
Output: mid range

Input: Bin? UAUUAAUUGUCAGGAUAUCGUAUUCGAGUGAUGUUCGUAUAUCGACGAUAGUCGAUAUUAUUUAUACGAGAAGGGACAUUAUUUA [JR_SSFMNB_Sub005]
Output: low range

Input: Any idea which band UUUAUUAAGACGGCCGCCACUGAUUCAUAGUGAUGUUAUGAUAUAAUUUUAGUGAUUUUGAUUAGCAGGACCGGGUCAAUUAUUA [JR_ExcTryptoB_Sub016] is in?
Output: low range

Input: Please indicate the class for GCCGUAGAUUGAAGGAGCGUUCUUCAGCAAACUUGCAGUGAUGUUGCAUUAAACAUGUAAGAACAGGUAGGUCGCAAUCUACGGC based on its apparent KD of K4 kissing-loop reporter.
Output: low range

Input: Please report the category associated with AGAGUUAUGCGAGGAUAUGCGGUUAGUACUCAAAGAGUACUAACAGCAGAGUGAUGUUCUGUGAAAGCAGAAGGUGCAUAACUCA [Omei KL FMN B SS B v10] , nothing else.
Output: high range

Input: // bin(item) where item = GGUGACUACCAGAGGUGAUGUAUAGUAUCGCGAGGACCGGUACGGCCGCCACUCGUGAAGAGAAAGGAGUGAUGUUCCGUAAUGG [Kazoo C8]
Output: high range

Input: Which class holds CCGUAGCGAUCGGCCGCCACUCAAGAUCGCCAACUAUCACACGGUUCUCCCGAGUGAUGUUCUAGGAGGACCGGGAUUGUUGCUC [theeternabot_exclusion_KL_Trp_B_13] ?
Output: mid range

Input: Input UUUCGGCCCAGUGAUGUUGGGUGGAGGCGGCGAGGACCGGUACGGCCGCCACUCGGCGCACUGGCGGAGUGAUGUUUCGUGUAUA [Same State Tryptophan A GF 14] ; output its category
Output: high range

Input: Please classify: UUAUCUAUAUUCGAUACCAGUACCCUGUGUGUUGAUCCUUUUAUAAGUGAUGUUUAUGAGUACCCUUGGCAGCGGGUAUGGGUUU [KL-XTheo-B17]
Output: high range

Input: Category lookup for the sequence UUUGUAUCGGGAAGGAGCGUGAAUGAUAAUGAAUAUAGUGAUGUUAUAUAUAAGAACGAAUCACAGGUAGGUCGCCCGGAUGACU [SSArgB.O]
Output: high range

Input: Please classify: GGGCCUCUGGCUGAUACCAGUGAUAAAGGGUAAGAGACAGGGAGUGAUGUUCCCUUUAGCCACCCUUGGCAGCAGUUUAAGUUUG [Exclusion Theophylline B GF 18]
Output: low range

Input: Category of CGUCACAAACCUAGUCAAGUGAUGUUUGGCCGAGGACCGGUACGGCCGCCACUCGCUCCUGUCACCCAUUCGUGUGUCGCGGACU [theeternabot_exclusion_KL_Trp_A_5] :
Output: mid range

Input: Class label required: AGUUCCUCUGUCGAUACCAGCUUCAGUUGGCGGCCAGUGAUGUUGGUAUCGCCGAUGCCAAGCCCUUGGCAGCGACAUGAGACCC [Lausso]
Output: low range

Input: Sort into band: UGGAGUUGACGAAAAGUCAACUCCUGAGAUACCAGUGACGAAAGUCACCCUUGGCAGCUCACUGCCAGUGAUGUUGGUAAAUAAA [#OpenEnded 3]
Output: mid range

Input: // bin(item) where item = AAUGUACAGGGAAGGAGCGUAGUCCAGUGAUGUUGGAAUUAAAUUCCUGCGAUGUUGGUUAUACAGGUAGGUCGCCCUAAAGUGC [KL-XARG-B22]
Output: mid range

Input: For GGGAGUGAUGUUCCCACGUUGUCGGUCCUCCGAGGACCGGUACGGCCGCCACUCGCGACCCAGUGAUGUUGGGACUCACCGUACC [Exclusion Tryptophan A Gf 12] , which apparent KD of K4 kissing-loop reporter bin applies?
Output: mid range

Input: Lab note: which band did AUUAAUUUCAGAGGAUAUCGUUAUUUUUUAUAUUUUAUUCAUUUAUGCAGUGAUGUUGCUAUUAAUCGAGAAGGCUGAUUUAUAA [JR_ExcFMNB_Sub003] land in?
Output: low range

Input: Record AAAUUUUCAAGUGAUACCAGACAUUUCUAUUACAUUAAUAUAGCUAAGUGAUGUUUAGCAGUCCCUUGGCAGCACUAUUUAAUUA [JR_SSTheophyB_Sub014] — which class?
Output: mid range

Input: For CUCGAGUGAUGUUCGAUUAUUUAUACAGAUACCAGUGAAUUUUAACACCCUUGGCAGCUGGUAGUAUCUUUGUAAUUUUAACUAG [JR_ExcTheophyA_Sub003] , which apparent KD of K4 kissing-loop reporter bin applies?
Output: low range
